# tested system: UniProt P08908
# method notes: Displacement of [3H]8-OH-DPAT from human recombinant 5HT1A receptor expressed in HEK293 cells
quantity kind: Ki (nM)

[I] O=C(CCCCCN1CCN(c2ccccc2F)CC1)NC1CCCc2ccccc21 (stereo not given)
[II] CC(C)(C)c1ccccc1N1CCN(CCCCCC(=O)NC2CCCc3ccccc32)CC1 (stereo not given)
[III] CN(C)c1ccccc1N1CCN(CCCCCC(=O)NC2CCCc3ccccc32)CC1 (stereo not given)
[IV] O=C(CCCCCN1CCN(c2cccc[n+]2[O-])CC1)NC1CCCc2ccccc21 (stereo not given)
[V] CC(=O)Nc1ccccc1N1CCN(CCCCCC(=O)NC2CCCc3ccccc32)CC1 (stereo not given)
-- ask Ranking field: Ki; order: falling. Return value: ordered labels per request.
-- reply V, II, IV, III, I

[P] CCc1ccccc1N1CCN(CCCCCC(=O)NC2CCCc3ccccc32)CC1 (stereo not given)
[Q] O=C(CCCCCN1CCN(c2ccccn2)CC1)NC1CCCc2ccccc21 (stereo not given)
-- ask Lower value for measured Ki? Options: P , Q Identify your selection by its label.
-- reply Q

* * *

# tested system: D(2) dopamine receptor (Homo sapiens)
# method notes: Displacement of [3H]spiroperidol from human recombinant Dopamine D2 long receptor
quantity kind: Ki (nM)

[1] COc1ccccc1N1CCN(CCCCCC(=O)NC2CCCc3ccccc32)CC1 (stereo not given)
[2] N#Cc1ccccc1N1CCN(CCCCCC(=O)NC2CCCc3ccccc32)CC1 (stereo not given)
[3] CCc1ccccc1N1CCN(CCCCCC(=O)NC2CCCc3ccccc32)CC1 (stereo not given)
-- ask Order each entry by recorded Ki, climbing from the minimum. Lab note: record answer as labels in requested order.
-- reply 1, 3, 2
(1: 26.4 nM, 3: 173 nM, 2: 265 nM)

* * *

# tested system: 5-hydroxytryptamine receptor 7 (Rattus norvegicus, UniProt P32305)
# Sequence (P32305 whole entry): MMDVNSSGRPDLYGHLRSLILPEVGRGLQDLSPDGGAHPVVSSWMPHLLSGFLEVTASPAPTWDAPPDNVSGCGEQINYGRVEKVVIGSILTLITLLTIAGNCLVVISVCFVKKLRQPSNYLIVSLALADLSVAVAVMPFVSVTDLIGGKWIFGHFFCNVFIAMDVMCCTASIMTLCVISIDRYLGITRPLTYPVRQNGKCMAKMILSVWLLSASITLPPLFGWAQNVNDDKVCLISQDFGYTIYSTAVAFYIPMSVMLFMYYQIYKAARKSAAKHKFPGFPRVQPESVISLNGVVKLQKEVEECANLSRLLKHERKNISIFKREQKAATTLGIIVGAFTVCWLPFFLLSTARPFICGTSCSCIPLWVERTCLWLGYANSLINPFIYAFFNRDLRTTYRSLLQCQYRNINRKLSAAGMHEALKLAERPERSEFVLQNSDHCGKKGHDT
# method notes: Displacement of [3H]LSD from rat recombinant 5HT7 receptor expressed in HEK293 cells
pKi: −log10 of the molar value.
quantity kind: pKi

response.value for Nc1ccccc1N1CCN(CCCCCC(=O)NC2CCCc3ccccc32)CC1 (stereo not given) (field: pKi) = 5.09

[1] CC(C)(C)c1ccccc1N1CCN(CCCCCC(=O)NC2CCCc3ccccc32)CC1 (stereo not given)
[2] O=C(CCCCCN1CCN(c2cccc[n+]2[O-])CC1)NC1CCCc2ccccc21 (stereo not given)
[3] O=C(CCCCCN1CCN(c2ccccc2F)CC1)NC1CCCc2ccccc21 (stereo not given)
[4] O=C(CCCCCN1CCN(c2ccccn2)CC1)NC1CCCc2ccccc21 (stereo not given)
-- ask Task for the reader: rank each entry by its pKi, from the minimum upward. Form entry: ranked labels (order as requested).
-- reply 2, 1, 4, 3

* * *

# tested system: UniProt:P50407
# method notes: Agonist activity at 5HT7 receptor in guinea pig ileum assessed as relaxation of substance P-induced contraction
quantity kind: EC50 (nM)

// solved cases for EC50 follow
Noted for CC(C)c1ccccc1N1CCN(CCCCCC(=O)NC2CCCc3ccccc32)CC1 (configuration not stated) : its EC50 reads 900

Recorded result, "NCCc1c[nH]c2ccc(C(N)=O)cc12" , EC50: 630

Briefly, EC50 measured for O=C(CCCCCN1CCN(c2ccccc2Cl)CC1)NC1CCCc2ccccc21 (configuration not stated) : 17000

[P] O=C(CCCCCN1CCN(c2ccccc2)CC1)NC1CCCc2ccccc21 (configuration not stated)
[Q] CN(C)c1ccccc1N1CCN(CCCCCC(=O)NC2CCCc3ccccc32)CC1 (configuration not stated)
-- ask Consider entries P and Q . Which has the numerically lower EC50? // return label of chosen record
-- reply Q

[A] O=C(CCCCCN1CCN(c2ccccc2-c2ccccc2)CC1)NC1CCCc2ccccc21 (configuration not stated)
[B] O=C(CCCCCN1CCN(c2ccccc2[N+](=O)[O-])CC1)NC1CCCc2ccccc21 (configuration not stated)
-- ask Would you mind telling me which has the lower recorded EC50 between A and B ? Select an item and report its label.
-- reply A

* * *

# tested system: D(2) dopamine receptor (Homo sapiens)
# method notes: Displacement of [3H]spiroperidol from human recombinant Dopamine D2 long receptor […]
quantity kind: inhibition (%)

Worked examples, 3 compounds total:
Looking up CS(=O)(=O)c1ccccc1N1CCN(CCCCCC(=O)NC2CCCc3ccccc32)CC1 (stereo unspecified) , I see its inhibition listed as 32

Looking up CC(=O)Nc1ccccc1N1CCN(CCCCCC(=O)NC2CCCc3ccccc32)CC1 (stereo unspecified) , I found its inhibition recorded as 35

Noted for CC(C)(C)c1ccccc1N1CCN(CCCCCC(=O)NC2CCCc3ccccc32)CC1 (stereo unspecified) : its inhibition reads 38

[A] NC(=O)c1ccccc1N1CCN(CCCCCC(=O)NC2CCCc3ccccc32)CC1 (stereo unspecified)
[B] O=C(CCCCCN1CCN(c2ccccn2)CC1)NC1CCCc2ccccc21 (stereo unspecified)
-- ask For the pair A and B , which entry has the numerically smaller recorded inhibition? Identify your selection by its label.
-- reply B
(B: 15%, A: 32%)

* * *

# tested system: 5-hydroxytryptamine receptor 1A (Homo sapiens, UniProt P08908)
# Sequence (P08908 whole entry): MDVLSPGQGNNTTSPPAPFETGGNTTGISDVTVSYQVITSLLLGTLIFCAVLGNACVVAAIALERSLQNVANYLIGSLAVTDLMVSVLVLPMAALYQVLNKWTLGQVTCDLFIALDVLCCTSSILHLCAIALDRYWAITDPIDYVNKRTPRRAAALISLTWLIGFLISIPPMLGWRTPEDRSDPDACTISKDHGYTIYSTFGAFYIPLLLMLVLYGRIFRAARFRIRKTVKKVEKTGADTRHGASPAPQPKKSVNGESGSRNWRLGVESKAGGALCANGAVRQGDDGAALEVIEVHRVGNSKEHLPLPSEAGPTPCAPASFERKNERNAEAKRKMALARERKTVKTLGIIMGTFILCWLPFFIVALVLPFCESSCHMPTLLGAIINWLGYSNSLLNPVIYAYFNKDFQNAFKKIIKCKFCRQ
# method notes: Displacement of [3H]8-OH-DPAT from human recombinant 5HT1A receptor expressed in HEK293 cells
quantity kind: Ki (nM)

Entry CCCCc1ccccc1N1CCN(CCCCCC(=O)NC2CCCc3ccccc32)CC1 (stereo not drawn) , Ki reported as 60

[1] Nc1ccccc1N1CCN(CCCCCC(=O)NC2CCCc3ccccc32)CC1 (stereo not drawn)
[2] O=C(CCCCCN1CCN(c2ccccc2-c2ccccc2)CC1)NC1CCCc2ccccc21 (stereo not drawn)
-- ask Smaller Ki value, 1 vs 2 ? // output: label of the selected item
-- reply 2
(2: 60.9 nM, 1: 415 nM)

* * *

# tested system: UniProt P50407
# method notes: Agonist activity at 5HT7 receptor in guinea pig ileum assessed as relaxation of substance P-induced contraction
# Format: functional, tissue-based
quantity kind: %max (%)

Sample answers from the record:
Record CN(C)c1ccccc1N1CCN(CCCCCC(=O)NC2CCCc3ccccc32)CC1 (stereo not drawn) ; system UniProt P50407; %max = 100

UniProt P50407 %max of O=C(CCCCCN1CCN(c2ccccc2-c2ccccc2)CC1)NC1CCCc2ccccc21 (stereo not drawn) is 74

Simply: "NCCc1c[nH]c2ccc(C(N)=O)cc12" , UniProt P50407, %max = 100

[A] O=C(CCCCCN1CCN(c2ccccc2Cl)CC1)NC1CCCc2ccccc21 (stereo not drawn)
[B] CC(C)c1ccccc1N1CCN(CCCCCC(=O)NC2CCCc3ccccc32)CC1 (stereo not drawn)
[C] O=C(CCCCCN1CCN(c2ccccc2[N+](=O)[O-])CC1)NC1CCCc2ccccc21 (stereo not drawn)
[D] CNc1ccccc1N1CCN(CCCCCC(=O)NC2CCCc3ccccc32)CC1 (stereo not drawn)
[E] O=C(CCCCCN1CCN(c2ccccc2)CC1)NC1CCCc2ccccc21 (stereo not drawn)
-- ask Sort ascending by %max. Rank the items, then write their labels in that order.
-- reply D, A, C, E, B

* * *

# tested system: D(2) dopamine receptor (Homo sapiens, UniProt P14416)
# Sequence (P14416 whole entry): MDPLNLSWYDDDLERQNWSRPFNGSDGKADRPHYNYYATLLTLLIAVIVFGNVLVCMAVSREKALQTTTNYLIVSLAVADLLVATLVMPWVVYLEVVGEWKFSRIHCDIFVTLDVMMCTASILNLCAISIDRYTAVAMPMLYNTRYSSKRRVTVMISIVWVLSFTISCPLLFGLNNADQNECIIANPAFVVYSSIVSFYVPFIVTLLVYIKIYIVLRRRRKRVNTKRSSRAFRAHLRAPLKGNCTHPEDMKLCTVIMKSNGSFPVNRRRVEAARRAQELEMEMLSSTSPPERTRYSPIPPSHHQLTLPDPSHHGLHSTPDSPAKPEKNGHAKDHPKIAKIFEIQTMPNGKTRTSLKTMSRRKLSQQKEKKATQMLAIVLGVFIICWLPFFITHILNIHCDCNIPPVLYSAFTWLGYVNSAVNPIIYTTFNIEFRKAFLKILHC
# method notes: Displacement of [3H]spiroperidol from human recombinant Dopamine D2 long receptor
quantity kind: Ki (nM)

Example entries begin here.
Given item O=C(CCCCCN1CCN(c2ccccc2O)CC1)NC1CCCc2ccccc21 (stereo not drawn) , the value recorded as its Ki is 987

The compound listed as CCCCc1ccccc1N1CCN(CCCCCC(=O)NC2CCCc3ccccc32)CC1 (stereo not drawn) has a reported Ki of 60

Cc1ccccc1N1CCN(CCCCCC(=O)NC2CCCc3ccccc32)CC1 (stereo not drawn) has a reported Ki of 143

Input CNc1ccccc1N1CCN(CCCCCC(=O)NC2CCCc3ccccc32)CC1 (stereo not drawn) . Output Ki: 107

Ki recorded for this compound, CC(=O)c1ccccc1N1CCN(CCCCCC(=O)NC2CCCc3ccccc32)CC1 (stereo not drawn) , is 68

[a] CSc1ccccc1N1CCN(CCCCCC(=O)NC2CCCc3ccccc32)CC1 (stereo not drawn)
[b] CCCc1ccccc1N1CCN(CCCCCC(=O)NC2CCCc3ccccc32)CC1 (stereo not drawn)
[c] O=C(CCCCCN1CCN(c2ccccc2Cl)CC1)NC1CCCc2ccccc21 (stereo not drawn)
-- ask Rank entries according to their Ki, from the largest number down. Form entry: labels listed in requested order.
-- reply b, c, a

[1] O=C(CCCCCN1CCN(c2ccccc2F)CC1)NC1CCCc2ccccc21 (stereo not drawn)
[2] O=C(CCCCCN1CCN(c2ccccc2[N+](=O)[O-])CC1)NC1CCCc2ccccc21 (stereo not drawn)
-- ask Form field 'greater Ki' accepts 1 or 2 ; which applies? # reply format: chosen label
-- reply 2
(2: 681 nM, 1: 292 nM)

[I] CN(C)c1ccccc1N1CCN(CCCCCC(=O)NC2CCCc3ccccc32)CC1 (stereo not drawn)
[II] O=C(CCCCCN1CCN(c2ccccc2-c2ccccc2)CC1)NC1CCCc2ccccc21 (stereo not drawn)
[III] O=C(CCCCCN1CCN(c2ccccc2)CC1)NC1CCCc2ccccc21 (stereo not drawn)
-- ask Put the compounds in ascending order of Ki. Would you mind listing the labels in the order requested?
-- reply I, II, III
(I: 32 nM, II: 224 nM, III: 1000 nM)
